# protocol_notes: Clearance in rat at 1.05 mg/kg, iv
# Type: ADME, organism-based
# Parameters: dose 1.05 mg/kg, route intravenous
# conditions: in vivo
measurement_name: clearance (mL/min/kg)
Answer format: numeric, mL/min/kg implied, no suffix.

Problem: Find the recorded clearance belonging to CC1CCCN(C(=O)c2csc(Nc3ccc4c(c3)OCO4)n2)C1C (stereo unspecified) and report it.
Result: 86

* * *

# protocol_notes: Cmax in rat at 1.05 mg/kg, iv
# Format: ADME, organism-based
# Design: dose 1.05 mg/kg, route intravenous
# conditions: in vivo
measurement_name: Cmax (ng/mL)
Answer format: numeric, ng/mL implied, no suffix.

Problem: Find the recorded Cmax belonging to CC1CCCN(C(=O)c2csc(Nc3ccc4c(c3)OCO4)n2)C1C (stereo unspecified) and report it.
Result: 340

Attribution: ChEMBL document CHEMBL2417435
